- target-desc: human CB2 receptor (Homo sapiens, UniProt P34972)
- Construct: expressed in transfected cells; host or cells: human embryonic kidney (HEK) cells, Semliki Forest Virus system, membrane preparations
- Sequence (P34972 whole entry): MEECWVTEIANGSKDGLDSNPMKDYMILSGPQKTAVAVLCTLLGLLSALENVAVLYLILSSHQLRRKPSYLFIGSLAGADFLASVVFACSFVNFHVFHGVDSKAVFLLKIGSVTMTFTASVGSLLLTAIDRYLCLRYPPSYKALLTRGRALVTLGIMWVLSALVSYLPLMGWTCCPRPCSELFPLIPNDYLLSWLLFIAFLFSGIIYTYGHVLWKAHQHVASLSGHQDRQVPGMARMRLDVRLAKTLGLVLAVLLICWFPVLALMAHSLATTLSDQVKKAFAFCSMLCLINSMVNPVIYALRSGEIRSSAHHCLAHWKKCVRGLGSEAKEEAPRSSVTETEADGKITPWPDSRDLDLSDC
- test-details: CB2 receptor affinity ([3H]-CP-55,940 displacement, HEK cell membranes)
- Format: binding
- study-conditions: displacement of [3H]-CP-55,940 at 10 μM
recorded-metric: inhibition at 10 µM (%)

Data request: API: value(readout=inhibition at 10 µM, system=human CB2 receptor (Homo sapiens, UniProt P34972)) for record "O=C(NN1CCOCC1)c1cnc(OCC(F)(F)F)c(C2CCCCC2)c1"
Data returned: -23

Data request: Another compound to check: "CN(NC(=O)c1cnc(OCC(F)(F)F)c(C2CC2)c1)c1ccncc1"
Data returned: 3

Data request: Another compound to check: "C[C@@H]1CN(NC(=O)c2cnc(OCC3CC3)c(C3CC3)c2)C[C@H](C)O1"
Data returned: 17

[P] O=C(NNc1ccc(F)cc1)c1cnc(OC2CCC2)c(-c2ccco2)c1
[Q] O=C(NN1CCCC1=O)c1cnc(OCC(F)(F)F)c(C2CCCC2)c1
Data request: Given the listed items, does P or Q have the lesser reported inhibition at 10 µM? In your reply, give the label of the chosen option.
Data returned: P
